- Procedure summary: Toxicity liver stage against HepG2, at 10uM
- Assay type: cell-based
- Design: test concentration 10 uM, cell line HepG2-A16-CD81EGFP
- Test conditions: human, HepG2-A16-CD81EGFP cells; read-out: INHIBITION
Assay metric: cytotoxicity at 10 µM (%)
Quick note: give the figure in %, leave out the unit.

Challenge: Entry CCOCc1cncc2c1CCN(S(=O)(=O)c1ccccc1)C2 : reported cytotoxicity at 10 µM = ?
Response given: 14.6

Challenge: Entry CS(=O)(=O)NCc1nnc2n1CCN(Cc1cccs1)CC2 : reported cytotoxicity at 10 µM = ?
Response given: -71.7

Challenge: Entry O=C1OCCN1CCSc1nnnn1CC(F)(F)F : reported cytotoxicity at 10 µM = ?
Response given: -41.5

Challenge: Entry CCOCCCOC(=O)c1ccc2c(c1)[nH]c(=O)n2C : reported cytotoxicity at 10 µM = ?
Response given: 3.54

Challenge: Entry Cc1nn(C)c(C)c1CCC(=O)N1CCCC(n2cccn2)C1 (stereo unspecified) : reported cytotoxicity at 10 µM = ?
Response given: -6.69

Challenge: Entry CC(C)c1noc(C2CCCN2C(=O)CN2CCc3ccccc32)n1 (stereo unspecified) : reported cytotoxicity at 10 µM = ?
Response given: -8.76

Challenge: Entry COc1cc(CNC(C)Cn2cccn2)cc2c1OCO2 (stereo unspecified) : reported cytotoxicity at 10 µM = ?
Response given: 1.58

Challenge: Entry CN(C)c1cccc(C2CCCN2S(N)(=O)=O)c1 (stereo unspecified) : reported cytotoxicity at 10 µM = ?
Response given: -5.44

Challenge: Entry O=C(CC1CC1)N1Cc2nccn2CC(COc2cccnc2)C1 (stereo unspecified) : reported cytotoxicity at 10 µM = ?
Response given: 5.09

Challenge: Entry COc1cc(-c2n[nH]c(CO)n2)cc(OC)c1OC : reported cytotoxicity at 10 µM = ?
Response given: -4.91

Challenge: Entry O=C(NCCNc1cnccn1)C1CCN(C(=O)N2CCCC2)CC1 : reported cytotoxicity at 10 µM = ?
Response given: -0.577

Challenge: Entry CCn1cc(CN2CC3CCCN3C[C@H]2C)c(C)n1 (stereo partly specified) : reported cytotoxicity at 10 µM = ?
Response given: 0.951

Challenge: Entry Cn1ncc(N2CCC(CNC3CC(C)(C)CC(C)(C)C3)C2)cc1=O (stereo unspecified) : reported cytotoxicity at 10 µM = ?
Response given: -10.4

Challenge: Entry CCN(C)c1ncnc2c1CCN(C(=O)c1ccccn1)CC2 : reported cytotoxicity at 10 µM = ?
Response given: -2.23

Challenge: Entry CCOc1cccc(CNc2ccccc2C(F)(F)F)c1O : reported cytotoxicity at 10 µM = ?
Response given: -4.17

Challenge: Entry CC(C)Cc1nc(CS(=O)(=O)c2ccccc2)no1 : reported cytotoxicity at 10 µM = ?
Response given: 9.52

Challenge: Entry CNC(=O)CCCNCc1c(C)nn(C)c1N(C)C : reported cytotoxicity at 10 µM = ?
Response given: -8.18

Challenge: Entry Cc1oc(C)c(C(=O)NCc2cccc(C(N)=O)c2)c1C : reported cytotoxicity at 10 µM = ?
Response given: -15.8

Challenge: Entry CC(C(=O)NC(N)=O)N(C)CCCc1cc(-c2ccccc2)no1 (stereo unspecified) : reported cytotoxicity at 10 µM = ?
Response given: -8.63

Challenge: Entry O=C(O)c1ccccc1-n1cc(CN2CCC(c3cc[nH]n3)C2)cn1 (stereo unspecified) : reported cytotoxicity at 10 µM = ?
Response given: 1.1

Challenge: Entry CN(Cc1cnn(-c2ccccc2)n1)C1CCCN(c2cccnn2)C1 (stereo unspecified) : reported cytotoxicity at 10 µM = ?
Response given: -9.83

Challenge: Entry Cn1cc(CCNCC2CNc3ccnn3C2)cn1 (stereo unspecified) : reported cytotoxicity at 10 µM = ?
Response given: 3.34

Challenge: Entry CC(O)CN1CCN(Cc2csc(-c3ncccn3)n2)CC1 (stereo unspecified) : reported cytotoxicity at 10 µM = ?
Response given: 5.4

Challenge: Entry CC(C)OCCS(=O)(=O)NC1CCN(C2CCCC2)C1 (stereo unspecified) : reported cytotoxicity at 10 µM = ?
Response given: 1.68

Challenge: Entry Cn1cc(NC(=O)c2cc3c(s2)CCCC3)cn1 : reported cytotoxicity at 10 µM = ?
Response given: -2.17

Challenge: Entry CN1CCCN(C(=O)c2nc3c(n2C)CCN(c2ncccn2)C3)CC1 : reported cytotoxicity at 10 µM = ?
Response given: -9.18

Challenge: Entry Cc1csc(CNC(=O)NC(C)c2ccc3c(c2)CCC(=O)N3)n1 (stereo unspecified) : reported cytotoxicity at 10 µM = ?
Response given: 4.17

Challenge: Entry CCC(C)Oc1ccc(CNCCNC(C)=O)cc1OC (stereo unspecified) : reported cytotoxicity at 10 µM = ?
Response given: -8.09

Challenge: Entry Oc1cc(CN2CCC(O)(Cn3ccnc3)CC2)nc2c(Cl)cccc12 : reported cytotoxicity at 10 µM = ?
Response given: -60.8

Challenge: Entry O=C(CCCOc1ccc(F)cc1F)N1CCCC(n2cccn2)C1 (stereo unspecified) : reported cytotoxicity at 10 µM = ?
Response given: -4.75

Challenge: Entry COc1c(C)cnc(CN2CCOC(Cn3nc(C)cc3C)C2)c1C (stereo unspecified) : reported cytotoxicity at 10 µM = ?
Response given: 3.66

Challenge: Entry CN(CC1CCCCO1)S(=O)(=O)c1cccc(C(=O)N2CCOCC2)c1 (stereo unspecified) : reported cytotoxicity at 10 µM = ?
Response given: -12.4

Challenge: Entry CCc1nccn1CC1CCCN1S(=O)(=O)Cc1ccccc1 (stereo unspecified) : reported cytotoxicity at 10 µM = ?
Response given: -13.4

Challenge: Entry CN(Cc1ccsc1)C(=O)c1ccc(C2CCCO2)s1 (stereo unspecified) : reported cytotoxicity at 10 µM = ?
Response given: 7.9

Challenge: Entry Cc1nccnc1N1C[C@H]2CN(C3CCOCC3)C[C@@]2(C(=O)O)C1 : reported cytotoxicity at 10 µM = ?
Response given: -6.93

Challenge: Entry COCCNS(=O)(=O)c1ccc(Cl)c(C(=O)N(C)Cc2sccc2C)c1 : reported cytotoxicity at 10 µM = ?
Response given: -7.53

Challenge: Entry CO[C@H]1COC[C@@H]1NC(=O)C1(Oc2ccc(Cl)cc2)CCNCC1 : reported cytotoxicity at 10 µM = ?
Response given: -1.91

Challenge: Entry Cc1cn[nH]c1C1COCCN1C(=O)c1ccc2[nH]nnc2c1 (stereo unspecified) : reported cytotoxicity at 10 µM = ?
Response given: 2.73

Challenge: Entry COCc1cc(C[C@@H]2CC[C@H](O)[C@@H](CN(C)C)O2)no1 : reported cytotoxicity at 10 µM = ?
Response given: 12

Challenge: Entry COc1ccc(CN2CC(O)CN(C(=O)c3ccccc3)CC2=O)cc1 (stereo unspecified) : reported cytotoxicity at 10 µM = ?
Response given: 0.331

Challenge: Entry COc1ccc(CC(C)(O)CNC(=O)Cc2ccc(F)cc2)cc1 (stereo unspecified) : reported cytotoxicity at 10 µM = ?
Response given: 3.91

----------
- Procedure summary: Toxicity liver stage against HepG2, at 10uM
- Type: cell-based
- Design: test concentration 10 uM, cell line HepG2-A16-CD81EGFP
- Test conditions: human, HepG2-A16-CD81EGFP cells; read-out: INHIBITION
Assay metric: cytotoxicity at 10 µM (%)
Quick note: give the figure in %, leave out the unit.

Challenge: Entry Cc1ccc(CNCC2Cn3nncc3CO2)s1 (stereo not drawn) : reported cytotoxicity at 10 µM = ?
Response given: -99.4

Challenge: Entry c1ccc(CCN2CCN(c3ccc4nncn4n3)CC2)cc1 : reported cytotoxicity at 10 µM = ?
Response given: -11.7

Challenge: Entry CC(C)(C)c1ccc(-c2n[nH]c3c2CN(CC2CCOC2)CC3)cc1 (stereo not drawn) : reported cytotoxicity at 10 µM = ?
Response given: -40.1

----------
- Procedure summary: Toxicity liver stage against HepG2, at 10uM
- Assay type: cell-based
- Design: test concentration 10 uM, cell line HepG2-A16-CD81EGFP
- Test conditions: human, HepG2-A16-CD81EGFP cells; read-out: INHIBITION
Assay metric: cytotoxicity at 10 µM (%)
Quick note: give the figure in %, leave out the unit.

Challenge: Entry Cc1cccc(CN2CCN(C(=O)c3cc(C4CC4)[nH]n3)CC2)c1 : reported cytotoxicity at 10 µM = ?
Response given: -5.38

Challenge: Entry CC(=O)N[C@@H]1CN(Cc2ccccc2-n2nc(C)cc2C)C[C@H]1C(C)C : reported cytotoxicity at 10 µM = ?
Response given: 4.01

Challenge: Entry CCCS(=O)(=O)NC(=O)c1cc(C)n(-c2ccccc2)n1 : reported cytotoxicity at 10 µM = ?
Response given: -7.21

Challenge: Entry O=C(C1CC1)N1CCOC2(CCNCC2)C1 : reported cytotoxicity at 10 µM = ?
Response given: -112

Challenge: Entry Cc1nc[nH]c1CNC1CC(=O)N(CCc2cccc(Cl)c2)C1 (stereo not given) : reported cytotoxicity at 10 µM = ?
Response given: -135

Challenge: Entry COc1ccccc1NC(=O)c1[nH]nc(C(C)C)c1Br : reported cytotoxicity at 10 µM = ?
Response given: 8.24

Challenge: Entry CN1CCN(C(=O)c2cccs2)Cc2ccccc21 : reported cytotoxicity at 10 µM = ?
Response given: -43.9

Challenge: Entry CN(Cc1cccnc1)C1CC2(CCN(c3ncccn3)CC2)C1 : reported cytotoxicity at 10 µM = ?
Response given: -3.31

Challenge: Entry COc1cccc(CSC=C2Nc3ccccc3S(=O)(=O)N2)c1 : reported cytotoxicity at 10 µM = ?
Response given: 3.7

Challenge: Entry COC(=O)C(C)(C)NC(=O)C1CC(=O)N(C)C1 (stereo not given) : reported cytotoxicity at 10 µM = ?
Response given: -8.92

Challenge: Entry O=C(c1ccncc1F)N1CC[C@@H]2CN(c3ncccn3)CCO[C@@H]2C1 : reported cytotoxicity at 10 µM = ?
Response given: -77.2

Challenge: Entry CCn1cc(NC(=O)NCC(C)(C)N2CCc3ccccc3C2)cn1 : reported cytotoxicity at 10 µM = ?
Response given: -5.16

Challenge: Entry Cc1ccc([C@]2(O)CC[C@H]3CN(Cc4ccc(Cl)cc4Cl)C[C@H]32)nc1 : reported cytotoxicity at 10 µM = ?
Response given: 8.32

Challenge: Entry COc1ccc(N2CCNC(C(N)=O)C2)cc1 (stereo not given) : reported cytotoxicity at 10 µM = ?
Response given: -4.8

Challenge: Entry COc1nc2c(cc1C(=O)NCCc1nc3c(s1)CCC3)CCC2 : reported cytotoxicity at 10 µM = ?
Response given: 5.05

Challenge: Entry CN(CCC#N)C(=O)CN1CCCN(Cc2noc(C3CC3)n2)CC1 : reported cytotoxicity at 10 µM = ?
Response given: 6.39

Challenge: Entry COc1ccc(CC(=O)N(C)C2CCN(C)C2=O)cc1F (stereo not given) : reported cytotoxicity at 10 µM = ?
Response given: 0.0152

Challenge: Entry CCN(C(=O)CCc1ccc2[nH]ccc2c1)C1CC(=O)NC1=O (stereo not given) : reported cytotoxicity at 10 µM = ?
Response given: -8.96

Challenge: Entry Cc1cc2c(cc1Cl)C=CC1(CCN(CC(=O)N3CCCC3)CC1)O2 : reported cytotoxicity at 10 µM = ?
Response given: -8.05

Challenge: Entry O=C(NCc1ccccc1CN1CCC(O)CC1)Nc1ccccn1 : reported cytotoxicity at 10 µM = ?
Response given: 8.52

Challenge: Entry CC(C)(C)c1ncc2c(n1)CN(C(=O)c1ccc3[nH]cnc3c1)C2 : reported cytotoxicity at 10 µM = ?
Response given: -2.62

Challenge: Entry CSCCCN1C[C@H](NC(=O)c2cnn(C)c2)[C@@H](C2CC2)C1 : reported cytotoxicity at 10 µM = ?
Response given: 4.43

Challenge: Entry CCn1cc(CN2CCN(Cc3cc(C)cc(C)c3)C(=O)C2)cc1C#N : reported cytotoxicity at 10 µM = ?
Response given: 1.72

Challenge: Entry Cc1cc2c(cc1Cl)C=CC1(CCN(C(=O)N3CCOCC3)CC1)O2 : reported cytotoxicity at 10 µM = ?
Response given: 23.2

Challenge: Entry O=C([C@H]1C[C@H]2OCC[C@H]2N(CC2CC2)C1)N1CCCC1 : reported cytotoxicity at 10 µM = ?
Response given: -0.542

Challenge: Entry CCOC(=O)CSc1ccc(-c2nc(CC)no2)cn1 : reported cytotoxicity at 10 µM = ?
Response given: -17.1

Challenge: Entry N#Cc1cccnc1N1CCCC(CO)(CCOc2ccccc2)C1 (stereo not given) : reported cytotoxicity at 10 µM = ?
Response given: 3.04

Challenge: Entry Cn1cc(CN2CCC3(CCCN3S(C)(=O)=O)CC2)cn1 : reported cytotoxicity at 10 µM = ?
Response given: 1.59

Challenge: Entry CCc1nccc(CN2CCC(CNC(=O)Nc3ccccc3)C2)n1 (stereo not given) : reported cytotoxicity at 10 µM = ?
Response given: 9.99

Challenge: Entry CC(C)(NCC(=O)N1CCCC(C(N)=O)C1)c1ccc(Cl)cc1 (stereo not given) : reported cytotoxicity at 10 µM = ?
Response given: 3.36

Challenge: Entry Cc1n[nH]c(C2CN(C(=O)c3cnc[nH]3)CCO2)n1 (stereo not given) : reported cytotoxicity at 10 µM = ?
Response given: -0.265

Challenge: Entry COc1ccc(CN(C)C(=O)NCc2c(C)cc(C)[nH]c2=O)cc1 : reported cytotoxicity at 10 µM = ?
Response given: -1.13

Challenge: Entry COC(=O)C1CN(CC(=O)Nc2cccc(OC)c2)c2ccccc21 (stereo not given) : reported cytotoxicity at 10 µM = ?
Response given: 11.1

Challenge: Entry Cc1c(C(=O)NCCN2C(=O)CCC2=O)sc2ccc(F)cc12 : reported cytotoxicity at 10 µM = ?
Response given: 2.11

Challenge: Entry CN(CC(=O)NCC1CCCCC1)S(=O)(=O)c1cccnc1 : reported cytotoxicity at 10 µM = ?
Response given: 3.82
